These data points were gathered from the supplement of paper PMC10646978.

Reported IRF reporter values follow for various compounds
# Tested on: RAW-Dual (murine macrophage reporter line)
# Assay Text: IRF reporter (Lucia luciferase) activity fold change vs agonist alone; higher = enhanced IRF activity
# Experimental Parameters: modulator concentration 10 µM; agonist: LPS 0.1 ug/mL
Measure Name: IRF reporter

>  <Compound>
Cc1cc(C(=O)Nc2ccccc2S(C)(=O)=O)no1

>  <Measure Name>
IRF reporter

>  <Recorded Measurement>
1.04

$$$$
>  <Compound>
O=C(CN1CCN(c2ccccc2F)C1=O)N1CCCC(Oc2ccncn2)C1 (stereo unspecified)

>  <Measure Name>
IRF reporter

>  <Recorded Measurement>
0.968

$$$$
>  <Compound>
CCN1C(C)=C(C(=O)OC)C(c2ccc([N+](=O)[O-])cc2)C(C(=O)OC)=C1C

>  <Measure Name>
IRF reporter

>  <Recorded Measurement>
0.954

$$$$
>  <Compound>
Cc1c(-c2ccccc2)nc2ccccc2c1C(=O)N1CCCC1

>  <Measure Name>
IRF reporter

>  <Recorded Measurement>
1.62

$$$$
>  <Compound>
COc1cc2c(cc1Cc1cccc(Cl)c1F)c(=O)c(C(=O)O)cn2[C@H](CO)C(C)C

>  <Measure Name>
IRF reporter

>  <Recorded Measurement>
1.13

$$$$
>  <Compound>
CCOC(=O)C1=C(C)NC(C)=C(C(=O)OCC)C1c1ccc(OC)cc1OC

>  <Measure Name>
IRF reporter

>  <Recorded Measurement>
1

$$$$
>  <Compound>
Cc1cnc2c(c1NCCCO)c(=O)n(C)c(=O)n2C

>  <Measure Name>
IRF reporter

>  <Recorded Measurement>
0.947

$$$$
>  <Compound>
Cn1c(=O)c2c(ncn2CC2OCCO2)n(C)c1=O

>  <Measure Name>
IRF reporter

>  <Recorded Measurement>
0.904

$$$$
>  <Compound>
COc1ccc(C2=CC(c3cc(OC)c(OC)c(OC)c3)n3ncnc3N2)cc1 (stereo unspecified)

>  <Measure Name>
IRF reporter

>  <Recorded Measurement>
1.07

$$$$
>  <Compound>
C[C@@H](O[C@H]1OCCN(Cc2n[nH]c(=O)[nH]2)[C@H]1c1ccc(F)cc1)c1cc(C(F)(F)F)cc(C(F)(F)F)c1

>  <Measure Name>
IRF reporter

>  <Recorded Measurement>
1.29

$$$$
>  <Compound>
Cc1ccc(/C(=C\CN2CCCC2)c2ccccn2)cc1.Cl.O

>  <Measure Name>
IRF reporter

>  <Recorded Measurement>
1.09

$$$$
>  <Compound>
O=C(NCC1CN(c2ccc(N3CCOCC3=O)cc2)C(=O)O1)c1ccc(Cl)s1 (stereo unspecified)

>  <Measure Name>
IRF reporter

>  <Recorded Measurement>
1.21

$$$$
>  <Compound>
COc1ccc(C(=O)CSc2nnc(NC(=O)C3CC(=O)N(c4cccc(OC)c4)C3)s2)cc1 (stereo unspecified)

>  <Measure Name>
IRF reporter

>  <Recorded Measurement>
0.758

$$$$
>  <Compound>
Br.COc1ccc(C2=NN(c3nc(-c4ccc(OC)c(F)c4)cs3)C(c3ccc(OC)cc3)C2)cc1 (stereo unspecified)

>  <Measure Name>
IRF reporter

>  <Recorded Measurement>
1.22

$$$$
>  <Compound>
CC(=O)N1CCc2ccc(NC(=O)C3(c4ccccc4)CCOCC3)cc2C1

>  <Measure Name>
IRF reporter

>  <Recorded Measurement>
1.28

$$$$
>  <Compound>
O=C1CSC(=S)N1c1ccc(Cl)cc1

>  <Measure Name>
IRF reporter

>  <Recorded Measurement>
0.673

$$$$
